# Read-out: Interleukin-8 (IL8), CXCL8 (gene 3576)
# test_details: BSK_3C_IL8: BioMAP Diversity Plus: 3C Assay for Interleukin-8 (IL8) Biomarker Activity (AID 2283020)
# particulars: primary human endothelial cells (HUVEC); actives raise or lower the signal
The source made the active and inactive calls. How the source made its calls: active means hit-call score of the fitted dose curve at least 0.9, where 1 is the maximum; inactive means score below 0.9.
Outcomes: Yes (active), No (inactive)

# compound, label
records = [
    ("CC1(C)[C@H](C(=O)O[C@H](C#N)c2cccc(Oc3ccccc3)c2)[C@@H]1/C=C(\\Cl)C(F)(F)F", "No"),
    ("C#CCOC(=O)/C=C(C)/C=C/CC(C)CCCC(C)C (stereo not given)", "Yes"),
    ("Cc1cc(Cl)ccc1N", "No"),
    ("CCCCCCCCCCCCN(C)C", "No"),
    ("C[C@]12CC[C@@H](O)C[C@@H]1CC[C@@H]1[C@@H]2CC[C@]2(C)C(=O)CC[C@@H]12", "No"),
    ("CCN(CC)C(=O)C(Cl)=C(C)OP(=O)(OC)OC", "No"),
    ("CC(C)(C)c1ccccc1O", "No"),
    ("c1ccc(-c2cccc(-c3ccccc3)c2)cc1", "Yes"),
    ("O=S(=O)(c1ccc(Cl)cc1)c1cc(Cl)c(Cl)cc1Cl", "Yes"),
    ("[Cl][Sn]([c]1ccccc1)([c]1ccccc1)[c]1ccccc1", "Yes"),
]
